# method-description: Plasma concentration in Swiss outbred mouse at […], iv at 1 hr by LC-MS analysis
# Format: ADME, organism-based
measurement-name: concentration at 1 h

>>> assay_result("CN(C)CCCNc1ccc(-c2ccc(F)c(Cl)c2)o1")
"0.043 µM"

* * *

# method-description: Plasma concentration in Swiss outbred mouse at […], iv at 0.08 hrs by LC-MS analysis
# Assay type: ADME, organism-based
measurement-name: concentration at 0.08 h

>>> assay_result("CN(C)CCCNc1ccc(-c2ccc(F)c(Cl)c2)o1")
"80 nM"

* * *

# method-description: Plasma concentration in Swiss outbred mouse at 48 mg/kg administered via oral gavage at 10 hrs by LC-MS analysis
# Format: ADME, organism-based
measurement-name: concentration at 10 h (nM)

>>> assay_result("CN(C)CCCNc1ccc(-c2ccc(F)c(Cl)c2)o1")
192

* * *

# method-description: Plasma concentration in Sprague-Dawley rat at 20 mg/kg administered via oral gavage at 5 hrs by LC-MS analysis
# Assay type: ADME, organism-based
measurement-name: concentration at 5 h

>>> assay_result("CN(C)CCCNc1ccc(-c2ccc(F)c(Cl)c2)o1")
"27 nM"

* * *

# method-description: Plasma concentration in Sprague-Dawley rat at 1 mg/kg, iv administered as 10 mins infusion measured at […] by LC-MS analysis
# Type: ADME, organism-based
measurement-name: concentration at […] (nM)

>>> assay_result("CN(C)CCCNc1ccc(-c2ccc(F)c(Cl)c2)o1")
71

* * *

# method-description: Plasma concentration in Swiss outbred mouse at […], iv at 7.5 hrs by LC-MS analysis
# Type: ADME, organism-based
measurement-name: concentration at 7.5 h (nM)

>>> assay_result("CN(C)CCCNc1ccc(-c2ccc(F)c(Cl)c2)o1")
31

* * *

# method-description: Plasma concentration in Sprague-Dawley rat at 20 mg/kg administered via oral gavage at […] by LC-MS analysis
# Format: ADME, organism-based
measurement-name: concentration at […] (nM)

>>> assay_result("CN(C)CCCNc1ccc(-c2ccc(F)c(Cl)c2)o1")
50

* * *

# method-description: Plasma concentration in Sprague-Dawley rat at 20 mg/kg administered via oral gavage at 1 hr by LC-MS analysis
# Format: ADME, organism-based
measurement-name: concentration at 1 h (nM)

>>> assay_result("CN(C)CCCNc1ccc(-c2ccc(F)c(Cl)c2)o1")
80

* * *

# method-description: Plasma concentration in Swiss outbred mouse at […], iv at 4 hrs by LC-MS analysis
# Assay type: ADME, organism-based
measurement-name: concentration at 4 h (nM)

>>> assay_result("CN(C)CCCNc1ccc(-c2ccc(F)c(Cl)c2)o1")
29

* * *

# method-description: Plasma concentration in Sprague-Dawley rat at 1 mg/kg, iv administered as 10 mins infusion measured at 0.5 hrs by LC-MS analysis
# Type: ADME, organism-based
measurement-name: concentration at 0.5 h (nM)

>>> assay_result("CN(C)CCCNc1ccc(-c2ccc(F)c(Cl)c2)o1")
36

* * *

# method-description: Plasma concentration in Swiss outbred mouse at 48 mg/kg administered via oral gavage at 24 hrs by LC-MS analysis
# Format: ADME, organism-based
measurement-name: concentration at 24 h (nM)

>>> assay_result("CN(C)CCCNc1ccc(-c2ccc(F)c(Cl)c2)o1")
208

* * *

# method-description: Plasma concentration in Swiss outbred mouse at […], iv at […] by LC-MS analysis
# Format: ADME, organism-based
measurement-name: concentration at […] (nM)

>>> assay_result("CN(C)CCCNc1ccc(-c2ccc(F)c(Cl)c2)o1")
54

Origin of the recorded values: ChEMBL document CHEMBL4002594
